# study.target: T1, IFN-αF (human, UniProt P01568 24-189)
# T1 construct: Recombinant, HEK293; also called IFN-α21
# T1 chain: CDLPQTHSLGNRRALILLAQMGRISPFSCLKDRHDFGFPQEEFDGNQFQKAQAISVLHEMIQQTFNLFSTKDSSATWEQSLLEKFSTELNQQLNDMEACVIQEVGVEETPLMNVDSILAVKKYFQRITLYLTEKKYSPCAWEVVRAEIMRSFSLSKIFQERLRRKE
# assay.summary: ProteOn SPR, cell supernatant;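 also: each binding measurement used just a single antigen concentration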
measured.attribute: Kd (nM)

* IFWM3419 (antibody, IgG1, V domains shown, mAb; IgG1/kappa said of the parent and of selected mAbs; also called IFWB3154) VH: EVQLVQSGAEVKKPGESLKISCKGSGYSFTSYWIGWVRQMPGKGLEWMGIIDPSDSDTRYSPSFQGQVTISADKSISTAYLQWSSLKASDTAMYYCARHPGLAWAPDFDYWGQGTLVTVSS VL: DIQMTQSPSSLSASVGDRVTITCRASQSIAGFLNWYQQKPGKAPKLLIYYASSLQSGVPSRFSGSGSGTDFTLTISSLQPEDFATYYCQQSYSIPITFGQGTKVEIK | 0.158
* IFWM3390 (antibody, IgG1, V domains shown, mAb; IgG1/kappa said of the parent and of selected mAbs; also called IFWB3125) VH: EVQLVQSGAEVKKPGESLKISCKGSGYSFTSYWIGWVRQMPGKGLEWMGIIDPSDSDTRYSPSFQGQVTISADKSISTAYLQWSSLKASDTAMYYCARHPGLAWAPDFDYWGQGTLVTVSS VL: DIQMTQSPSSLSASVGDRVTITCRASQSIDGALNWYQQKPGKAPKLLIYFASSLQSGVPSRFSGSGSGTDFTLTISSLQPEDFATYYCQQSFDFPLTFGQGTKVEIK | 0.011
